Test Protocol: yeast display, Sf9 membrane polyspecificity reagent, FACS + sequencing; frameworks hold sequencing errors

Chain Sequence	polyreactivity (PSR sort gate)
QVQLGESGGGLVQAGGSLRLSCAASGSIFPDNTMGWYRPATGKEWELVAAIDGRGGTTYYADSVKGRFTISRDNAKNTVYLQMNSLKPEDTAVYYCARDIGHSARYDYWGQGTQVTVSS	low polyreactivity
QVQLVESGGGLVQAGGSLRLSCAASGFIFGVYAMGWYRQAPGKERELVAAISRSGGSTYYADSVKGRFTISRDNAKNTVYLQMNSLKPEDTAVYYCAVRGSWYSEHNYWGQGTQVTVSS	high polyreactivity
QVQLVESGGGLVQAGGSLRLSCAASGFTIGANTMGWYRQAPGKERELVAAISASGGSTYYADSVKGRFTISRDNAKNTVYLQMNSLKPEDTAVYYCAARRYPGRTATYYSWGQGTQVTVSS	high polyreactivity
QVQLVESGGGLVQAGGSLRLSCAASGRTIWTYVMGWYRQAPGKERELVAAISRSGSSTYYADSVKGRFTISRDNAKNTVYLQMNSLKPEDTAVYYCAASSPWEQSHDQFYYWGQGTQVTVTS	low polyreactivity
QVQLVESGGGLVQAGGSLRLSCAASGRTFGPYVMGWYRQAPGKERELVAAISFSGGSTYYADSVKGRFTISRDNAKNTVYLQMNSLKPEDTAVYYCAARAVGGVRGYRYDYWGQGTQVTVSS	high polyreactivity
QVHLVESGGGLVQAGGSLRLSSAPSGLTLETNAMGWSRQAPGKERELVAGITYSGGTTYYADSVKGRFTISRDNAKNTVYLQMNSLKPEDTAVYYCAAHTSTSGHNFWGQGTQVTVSS	low polyreactivity
QVQLVESGGGLVQAGGSLRLSCAASGRIFYWNAMGWYRQEPGKEREFVAAIRLSSGSTYYADSVKGRFTISRDNAKYTVYLQLNSLKPVDTAVYYCATRTYTYWGGSYPHFYWGQGTQVTVSS	high polyreactivity
QVQLVESGGGLVQAGGSLRLSCAASGIIFYYNAMGWYRQAPGKERELVAAISSSGGSTSYADSVKGRFTISRDNAKNTVYLQMNSLKPEDTAVYYCAADSSPAYLGFVGFDYWGQGTQVTVSS	low polyreactivity
QVQLVESGGGLVQAGGSLRLSCAASGSNFDIYGMGWYRQAPGKERELVASISGGAGSTNYADSVKGRFTISRDNAKNTVYLQMNSLKPEDTAVYYCAAEVYVPDSFQHKFDVEYEYWGQGTQVTVSS	low polyreactivity
QVQLVESGGGLVQAGGSLRLSCAASGSTFSYYAMGWYRQAPGKERELVASISSGGSTNYADSVKGRFTISRANAKNTVYLQMNSLKPEDSAVYYCKADSWTVNRRYYYYRYEYWGQGSQVTVSS	low polyreactivity
QVQLVESGGGLVQAGGSLRLSSAASVIIFSNNAMGWSRQAPGKERELVAAISRSGGSTYYADSLKGRFTISRDNAKNTVYLQMNSLKPEETAVYYCAARARSRYDSWGQGTQVTVSS	low polyreactivity

====

Test Protocol: yeast display, Sf9 membrane polyspecificity reagent, FACS + sequencing; frameworks hold sequencing errors

Chain Sequence	polyreactivity (PSR sort gate)
QVQLVESGGGLVQGGGSLRLSCAASGRILYSYAMGWYRQAPGKERELVAAISWRGGPTYYADSVKGRFTISRDNAKNTVYLQLNSLKPEDTAVSNCAPEFYDHPWMYDYWGQGTQVTVSS	low polyreactivity
QVQLVESGGGLVQAGGSLRLSCAASGRISFINAMGWYRQAPGKEREFVAGITTDGGSTYYADSVKGRFTISRDNAKNTVYLQMNSLKPEDTAVYYCAAEGSVWYVYWGDIYDYWGQGTQVTVSS	low polyreactivity
QVQLVESGGGLVQAGGSLRLSCSASGITFGRNTKGWYRQAPGKERELVAASDSGGNTYADSVKGRFTISRDNAKNTVYLQMNSLKPEDTAVYYCAVDGGEFSSYGYWGQGTQVTVSS	low polyreactivity

====

Test Protocol: yeast display, Sf9 membrane polyspecificity reagent, FACS + sequencing; frameworks hold sequencing errors

Chain Sequence	polyreactivity (PSR sort gate)
QVQLVESGGGLVQAGGSLRLSCAASGSTSPINAMGWYRQAPGKERELVAVISSSGGLTYYADSVKGRFTISRDNAKNTVYLQMNSLKPEDTAVYYCAKRFSRRQPDYDYGGQGTQVTVSS	high polyreactivity
QVQLVESGGGLVQAGGSLRLSCSASGIIFKYYAMGWYRQAPVKERELVAAISRSSGSTYYADSVKGRFTISRDNAKNTVYLQMNSLKPEDTAVYYCAASGWQQKLDYWVQGTQVTVSS	high polyreactivity

====

Test Protocol: yeast display, Sf9 membrane polyspecificity reagent, FACS + sequencing; frameworks hold sequencing errors

Chain Sequence	polyreactivity (PSR sort gate)
QVQLVESGGGLVQAGGSLRLSCAASGRIFGHYAMGWYRQAPGKEMELVAAITIGGSTYYADSVKGRFTISRDNAKNTVYLQMNSLKPEDTAVYYCAKVGSNYRGRLGYWGQGTQVTVSS	low polyreactivity
QVQLVESGGGLVQAGGSLRLSCAASGSILGRYAMGWYRQAPGKERELVAAITNRGGSTYYADSVNGRFTISRDNAKNTVYLQMNSLKPEDTAVYYCAAPYSAKELYYRMDYWGQGTQVTVSS	high polyreactivity
QVQLVESGGGLVQAGGSLRLSCAASGSIFSAYAMGWYRQAPGKERELVAGISKRGGSTYYADSVKGRFTISRDNAKNTVYLQMNSLKPEDTAVYYCNAARYTVVTKLFDYWGQGTQVTVSS	high polyreactivity
QVQLVESGGGLVQARGSLRLICAASGRTFSYNTMGWYRQAPGKERDLVASITRSGGSTYYSDSVKGRFTISRDNAKNTVYLQMNSLKPEDTAVYYCAADSYPGSTYYDSLDYWGQGTQVTVSS	low polyreactivity
QVQLVESGGGLVQAGGSLRLSCDASGRIFYGYVMGWYRQAPGKERELVAAINQSGTSTYYADSVKGRFTISRDNAKNTVYLQMNSLKPEDTAVYYCAADQVGWTYDYWGQGTQVTVSS	low polyreactivity
QVQLVESGGGLVQAGGSLRLSCAASGFILPYYAMGWYRQAPGKERELVAAISDTGRTNYADSVKGRFTISRDNAKYTVYLQMNSLKPEDTAVYYCAARYYSPRYWFRYDSWGQCTQVTVSS	high polyreactivity
QVQLVESGGGLVQAGGSLRLSCAASGRILYGYAMGWYRQAPGKERELVASITWSGGSTYADSVKGRFTISRDNAKNTVYLQMNSLKPEDTAVYYCATRRGPKWQWLTYGYWGQGTQVTVSS	low polyreactivity
QVQLVESGGGLVQAGGSLRLSCAASGITFDDYDMGWYRQAPGKERELVAAISWSGGSTYYADSVKGRFTISRDNAKTTVYLQMNSLKPEDTAVYYCAAEVIWWVREYYYWGQGTQVTVSS	low polyreactivity
QVQLVESGGGLVQAGGSLRLSCAASGRIFGYNAMVWYRQAPGKERELVAAISYSGGSTYYADSVKGRFTISRDNAKNTVYLQMNSLKPEDTAVYYCATRPGYWRYEYWGQGTQVTVSS	high polyreactivity
QVQLQESGGGLVQAGGSLRLSCAASGNISVTGFMGWYRQAPGKERELVASIGIGGTTYYADSVKGRFSISRDNAKNTVYLQINSLKPVDTAVYYCAARYLYYAYSYWGQGTQVTVRS	low polyreactivity
QVQLVESGGGLVQAGGSLRLSCAASGSIFTLYAMGWYIQAPGKEREFVAGMSFSTGRTYYADSVKGRFTISRDNAKNTVYLQMHSLTPEDTAGYYCAAYVSHYWYGLYRDGYWGQGTQATVSS	low polyreactivity

====

Test Protocol: yeast display, Sf9 membrane polyspecificity reagent, FACS + sequencing; frameworks hold sequencing errors
Measured Attribute: polyreactivity (PSR sort gate)

Chain Sequence	Result
QVQLVESGGGLVQAGGSLRLSCAASGRIFVPNAMGWYRQAPGKERELVAAITRSGSTYYADSVKGRFTISRDNAKNTVYLQMNSLKPEDTAVYYCAADYYYPSQMDSWGQGTQVTVSS	low polyreactivity
QDQHVESGGGLVQAGGSLRLSCAATGNIFRYYTMGWYRQAPRKERELVAAISWNGGSTYYADSVKGRFTISRDNAKNTVYLQMNSLKPEDTAVYYCNAVQYYEFDYWGQGTQVTVSS	low polyreactivity
QVQLVESGGGLVQAGGSLRLSCAASGSTSGTNAMGWYRQAPGKERELVATISRRGGSTYYADSVKGRFTISRDNAKNTVYLQMNSLKQDYTAVYYCAARTYGYFLYDYWGQGTQVTVSS	high polyreactivity
QVQLVESGGGLVQAGGSLRLSCAASGRTFTPYAMGWYRQAPGKERELVATISSGTSTNYADSVNGRFTISRDNAKNTVYLQMNSLKPEDTAVYYCAADGYTYKFDYWGQGTQVTVSS	low polyreactivity
QVQLVESGVGLVQGGGSLRLTCPASGFTFDWYAMGWYRPAPGKERELVAAISSSGTSTYYADSVKGRFTISRDTAKNTVYLQMNSLKPEDTAVYYCAARWYYVTPLRRYCYWGQGTQVTVSS	high polyreactivity

The measurements presented in this section are drawn from the nanobody polyreactivity screen of Harvey et al. (2022).
